# System: CD1 Mice
# test description: Tail suspension test in mice
# Format: in vivo
# test settings: Table 3; dose yielding 50% reduction of immobility, oral
# Experimental: Tail Suspension Test in Mice To evaluate novel antidepressants compounds several animal models have been developed. […] The antidepressant effect of representative examples of compounds of formula (I) has been evaluated according to the procedure below. The immobility was induced according to the procedure of Stem et al. (1985). […] Immobility duration was recorded for 5 min. […]
Counter-ions that a name gives are not always drawn.
parameter measured: ED50

Lab note: measured ED50 of Cc1nccn1-c1ccc2nc(-c3ccccc3)ncc2c1 was 7.1 mg/Kg; OS

Summary for this molecule, c1ccc(-c2ncc3cc(-n4ccnc4)ccc3n2)cc1 : ED50 is 4.8 mg/Kg; OS

The reported ED50 of the molecule c1cn(-c2ccc3nc(-c4ccc5c(c4)OCO5)ccc3c2)cn1 [Example 16, dihydrochloride] was 4.6 mg/Kg; OS

// recorded ED50 for Fc1ccc(-c2ccc3cc(-n4ccnc4)ccc3n2)cc1 [Example 21, dihydrochloride] : 4.9 mg/Kg; OS

Noted for CS(=O)(=O)c1ccc(-c2ccc3cc(-n4ccnc4)ccc3n2)cc1 [Example 25, dihydrochloride] : its ED50 reads 8.7 mg/Kg; OS

Measured ED50, Cc1cncn1-c1ccc2nc(-c3ccccc3)ncc2c1 : 4.9 mg/Kg; OS

###

# target of assay: I2 Imidazoline Receptor
# test description: Binding study towards I2 imidazoline receptor subtype in rat brain ([3H]2-BFI displacement)
# test settings: read-out: [3H]2-BFI binding IC50; rat whole brain membranes, [3H]-2BFI 2.5x10-9 M, 90 min at 25° C.
Counter-ions that a name gives are not always drawn.
parameter measured: IC50 (µM)
Give just the numeric value; µM need not be written.

Value of measured IC50 for the entry Cc1cn(-c2ccc3nc(-c4ccc5c(c4)OCO5)ncc3c2)cn1 : 1.04

Entry c1ccc(-c2ncc3cc(-n4ccnc4)ccc3n2)cc1 , IC50 reported as 0.68

Kindly note the recorded IC50 for CN(C)c1ccc(-c2ccc3cc(-n4ccnc4)ccc3n2)cc1 [Example 22, trihydrochloride] , which is 3.78

Lab note: measured IC50 of c1ccc2oc(C3=NCCN3)cc2c1 [Example 2-BFI, 2-benzofuranylimidazoline, reference compound] was 0.007

According to the records, this compound c1ccc(-c2ccc3cc(-n4ccnc4)ccc3n2)cc1 displays IC50 of 0.42

###

Structures can show the parent of a compound that is named as a salt.
For each record, write down the corresponding melting point.

For record Cc1cn(-c2ccc3nc(-c4ccc(F)cc4)ccc3c2)cn1 (as salt: hydrochloride) [Example 32, dihydrochloride] the listed melting point is 264 to 268 °C

melting point reported for this compound c1cn(-c2ccc3nc(-c4ccoc4)ccc3c2)cn1 (as salt: hydrochloride) [Example 20, dihydrochloride] : 293.1 to 295.6 °C

compound CSc1ccc(-c2ccc3cc(-n4cnc(C)c4)ccc3n2)cc1 (as salt: hydrochloride) [Example 33, dihydrochloride] , melting point observed: 294 to 296 °C

Record summary for Cc1nccn1-c1ccc2nc(-c3ccccc3)ccc2c1 (as salt: hydrochloride) [Example 29, dihydrochloride] : reported melting point = 296 to 297 °C

Record COc1ccc(-c2ccc3cc(-n4ccnc4)ccc3n2)cc1 (as salt: hydrochloride) [Example 18, dihydrochloride] . Reported melting point: 266 to 267 °C

Reported melting point for COc1ccccc1-c1ccc2cc(-n3ccnc3)ccc2n1 (as salt: hydrochloride) [Example 19, dihydrochloride] was 251.5 to 252 °C

Lab note: measured melting point of Cc1nccn1-c1ccc2nc(-c3ccoc3)ccc2c1 (as salt: hydrochloride) [Example 28, dihydrochloride] was 240.1 to 243.2 °C

###

Task for the reader: assign each of the following compounds its reported IC50.
# target of assay: I2 Imidazoline Receptor
# test description: Binding study towards I2 imidazoline receptor subtype in rat brain ([3H]2-BFI displacement)
# test settings: read-out: [3H]2-BFI binding IC50; rat whole brain membranes, [3H]-2BFI 2.5x10-9 M, 90 min at 25° C.
Where a name gives a salt, the structure may show the parent alone.
Unit nM implied. Number only.

C#CCN(C)CCCOc1ccc(Cl)cc1Cl [Clorgyline, reference compound] has a reported IC50 of 1530

Input COc1ccccc1-c1ccc2cc(-n3ccnc3)ccc2n1 [Example 19, dihydrochloride] . Output IC50: 3160

Please fill in: IC50 reported for COc1ccc(-c2ncc3cc(-n4cnc(C)c4)ccc3n2)cc1 = 1160

Cc1cn(-c2ccc3nc(-c4ccccc4)ncc3c2)cn1 yielded IC50 of 480

The recorded IC50 for COc1ccc(-c2ccc3cc(-n4ccnc4)ccc3n2)cc1 [Example 18, dihydrochloride] is 1900

###

# Test system: CD1 Mice
# test description: Tail suspension test in mice
# Type: in vivo
# test settings: Table 3; dose 30 mg/Kg OS, 30 min before the test
Structures can show the parent of a compound that is named as a salt.
Tag: Satisfied if measured MPE (% inhibition in immobility time) is not below 90%, Not satisfied if it is.

IN: Would you say c1cn(-c2ccc3nc(-c4ccc5c(c4)OCO5)ccc3c2)cn1 [Example 16, dihydrochloride] shows MPE (% inhibition in immobility time) at minimum 90%?
OUT: Satisfied

IN: Does the compound CS(=O)(=O)c1ccc(-c2ccc3cc(-n4ccnc4)ccc3n2)cc1 [Example 25, dihydrochloride] have recorded MPE (% inhibition in immobility time) that is 90% or more?
OUT: Not satisfied

IN: Dear colleague, could you confirm whether c1ccc(-c2ncc3cc(-n4ccnc4)ccc3n2)cc1 [Example 1] has MPE (% inhibition in immobility time) at or above 90%?
OUT: Not satisfied

IN: Dear colleague, could you confirm whether Cc1nccn1-c1ccc2nc(-c3ccccc3)ncc2c1 [Example 2] has MPE (% inhibition in immobility time) at or above 90%?
OUT: Not satisfied

###

Where a name gives a salt, the structure may show the parent alone.
parameter measured: melting point

// COc1ccc(-c2ccc3cc(-n4ccnc4C)ccc3n2)cc1 (as salt: hydrochloride) [Example 26, dihydrochloride] : melting point value = 230 °C (dec.)

Recorded melting point (molecule COc1ccccc1-c1ncc2cc(-n3cnc(C)c3)ccc2n1 ): 160.6 to 162 °C

For record Cc1cn(-c2ccc3nc(-c4ccc(S(C)(=O)=O)cc4)ncc3c2)cn1 (as salt: hydrochloride) the listed melting point is 276.4 to 281.7 °C

Note to self: melting point recorded for Fc1ccc(-c2ccc3cc(-n4ccnc4)ccc3n2)cc1 (as salt: hydrochloride) [Example 21, dihydrochloride] was 280.7 to 282 °C

Given item Cc1cncn1-c1ccc2nc(-c3ccccc3)ncc2c1 (as salt: hydrochloride) , the value recorded as its melting point is 138.5 to 139.1 °C

According to the records, this molecule FC(F)(F)Oc1ccc(-c2ccc3cc(-n4ccnc4)ccc3n2)cc1 (as salt: hydrochloride) [Example 23, dihydrochloride] displays melting point of 260 to 262 °C

For this molecule ( COc1ccccc1-c1ccc2cc(-n3ccnc3C)ccc2n1 (as salt: hydrochloride) [Example 27, dihydrochloride] ), measured melting point is 235 °C (dec.)

###

# target of assay: I2 Imidazoline Receptor
# test description: Binding study towards I2 imidazoline receptor subtype in rat brain ([3H]2-BFI displacement)
# test settings: read-out: [3H]2-BFI binding IC50; rat whole brain membranes, [3H]-2BFI 2.5x10-9 M, 90 min at 25° C.
Structures can show the parent of a compound that is named as a salt.
Hi there, I'd appreciate the recorded IC50 for every entry that follows.
Quick note: give the figure in nM, leave out the unit.

With I2 Imidazoline Receptor as the test system, FC(F)(F)Oc1ccc(-c2ccc3cc(-n4ccnc4)ccc3n2)cc1 [Example 23, dihydrochloride] showed IC50 of 820

Result for c1cn(-c2ccc3nc(-c4ccc5c(c4)OCCO5)ncc3c2)cn1 , tested on I2 Imidazoline Receptor, IC50: 500

GET /values?item= C#CCN(C)[C@H](C)Cc1ccccc1 [Deprenyl, reference compound] &system= I2 Imidazoline Receptor returns IC50: 2310

Simply: Cc1cncn1-c1ccc2nc(-c3ccccc3)ncc2c1 , I2 Imidazoline Receptor, IC50 = 1180

Recorded IC50 for Fc1ccc(-c2ccc3cc(-n4ccnc4)ccc3n2)cc1 [Example 21, dihydrochloride] on I2 Imidazoline Receptor was 240

###

# target of assay: I2 Imidazoline Receptor
# test description: Binding study towards I2 imidazoline receptor subtype in rat brain ([3H]2-BFI displacement)
# test settings: read-out: [3H]2-BFI binding IC50; rat whole brain membranes, [3H]-2BFI 2.5x10-9 M, 90 min at 25° C.
Counter-ions that a name gives are not always drawn.
Assignment: determine reported pIC50 for the given molecules.
Scale for pIC50: -log10 of concentration given in mol/L; no unit attached.

The molecule listed as c1ccc2c(c1)OCC(C1=NCCN1)O2 (stereo not shown) [Idazoxan, reference compound] shows pIC50 equal to 7.96

Lab note: measured pIC50 of COc1ccccc1-c1ncc2cc(-n3cnc(C)c3)ccc2n1 [Example 7] was 5.66

Lookup result for c1cn(-c2ccc3nc(-c4ccc5occc5c4)ncc3c2)cn1 [Example 14, dihydrochloride trihydrate] ; measured pIC50: 6.21

In plain terms, c1cn(-c2ccc3nc(-c4ccoc4)ccc3c2)cn1 [Example 20, dihydrochloride] has a documented pIC50 of 5.92
